Could you please report measured Inh (PKA) for the items listed next?
- Tested on: PRKACA-PRKAR2A interaction (SmBiT-PRKACA / LgBiT-PRKAR2A), protein kinase A
- Parameters: NanoLuc complementation counter-screen in cell extract, PRKACA with PRKAR2A, loss of luminescence, detects NanoLuc interference
- study_conditions: counter-screen for NanoLuc interference, 0.5 h, 20 µM, inhibitor, Inh (PKA)
Structures can show the parent of a compound that is named as a salt.
Field format: number, assumed %, no unit text.

Qu. Which Inh (PKA) is listed for N[C@@H](CC(=O)N1CCn2c(nnc2C(F)(F)F)C1)Cc1cc(F)c(F)cc1F [UM0142834:01, Sitagliptin (phosphate)] ?
Ans. -0.1445

Qu. Which Inh (PKA) is listed for Cc1cc(Nc2cc(N3CCN(C)CC3)nc(/C=C/c3ccccc3)n2)n[nH]1 [UM0141724:01, ENMD-2076 L-(+)-Tartaric acid] ?
Ans. 17.98

Qu. Which Inh (PKA) is listed for COc1ccc2c3c1O[C@H]1C[C@@H](O)C=C[C@@]31CCN(C)C2 [UM0141554:01, Galanthamine] ?
Ans. 0.2093

Qu. Which Inh (PKA) is listed for CCCCCCOC(=O)NC(=N)c1ccc(NCc2nc3cc(C(=O)N(CCC(=O)OCC)c4ccccn4)ccc3n2C)cc1 [UM0142023:01, BIBR-1048] ?
Ans. 4.293

Qu. Which Inh (PKA) is listed for NCCc1c[nH]cn1 [UM0119882:03, Histamine 2HCl] ?
Ans. 0.5416

Qu. Which Inh (PKA) is listed for O=C(Cc1ccc(-c2ccc(OCCN3CCOCC3)cc2)cn1)NCc1ccccc1 [UM0141575:01, KX2-391 dihydrochloride] ?
Ans. 3.66

Qu. Which Inh (PKA) is listed for Oc1cccc(-c2nc(N3CCOCC3)c3oc4ncccc4c3n2)c1 [UM0127905:03, PI-103] ?
Ans. 4.016

Qu. Which Inh (PKA) is listed for CCOC(=O)[C@H](C)C[C@@H](Cc1ccc(-c2ccccc2)cc1)NC(=O)CCC(=O)O [UM0142165:01, AHU-377(Sacubitril)] ?
Ans. 9.484

Qu. Which Inh (PKA) is listed for CS(=O)(=O)CCNCc1ccc(-c2ccc3ncnc(Nc4ccc(OCc5cccc(F)c5)c(Cl)c4)c3c2)o1 [UM0127953:02, Lapatinib] ?
Ans. 55.05

Qu. Which Inh (PKA) is listed for CC(C)Cc1ccc([C@@H](C)C(=O)NS(C)(=O)=O)cc1 [UM0141612:02, Reparixin L-lysine salt] ?
Ans. 7.24

Qu. Which Inh (PKA) is listed for Cn1c(=O)cc(N2CCC[C@@H](N)C2)n(Cc2ccccc2C#N)c1=O [UM0141676:01, Alogliptin (SYR-322)] ?
Ans. 0.7637

Qu. Which Inh (PKA) is listed for COc1cc(Nc2ncc(F)c(Nc3ccc4c(n3)N(COP(=O)(O)O)C(=O)C(C)(C)O4)n2)cc(OC)c1OC [UM0141996:01, R788 disodium] ?
Ans. 11.53

Qu. Which Inh (PKA) is listed for CCCc1nn(C)c2c(=O)[nH]c(-c3cc(S(=O)(=O)N4CCN(C)CC4)ccc3OCC)nc12 [UM0141781:01, Sildenafil Citrate] ?
Ans. 4.187

Qu. Which Inh (PKA) is listed for CCCCCCOC(=O)NC(=N)c1ccc(NCc2nc3cc(C(=O)N(CCC(=O)OCC)c4ccccn4)ccc3n2C)cc1 [UM0141539:01, Dabigatran etexilate mesylate] ?
Ans. 7.702

Qu. Which Inh (PKA) is listed for CCCc1nn(C)c2c(=O)[nH]c(-c3cc(S(=O)(=O)N4CCN(C)CC4)ccc3OCC)nc12 [UM0141628:01, Sildenafil] ?
Ans. -0.5342

Qu. Which Inh (PKA) is listed for CNC(=O)c1cc(Oc2ccc(NC(=O)Nc3ccc(Cl)c(C(F)(F)F)c3)c(F)c2)ccn1 [UM0141611:01, Regorafenib monohydrate] ?
Ans. 6.023

Qu. Which Inh (PKA) is listed for O=C(O)Cc1ccccc1Nc1c(Cl)cccc1Cl [UM0118146:04, Diclofenac Sodium] ?
Ans. 5.073

Qu. Which Inh (PKA) is listed for CN(c1ncccc1CNc1nc(Nc2ccc3c(c2)CC(=O)N3)ncc1C(F)(F)F)S(C)(=O)=O [UM0141980:01, PF-562271] ?
Ans. 55.16

Qu. Which Inh (PKA) is listed for CCOC(=O)C1=C[C@@H](OC(CC)CC)[C@H](NC(C)=O)[C@@H](N)C1 [UM0133352:02, Oseltamivir phosphate] ?
Ans. -0.5287

Qu. Which Inh (PKA) is listed for O=C(/C=C/c1cccnc1)NCCCCC1CCN(C(=O)c2ccccc2)CC1 [UM0142102:01, FK 866 hydrochloride] ?
Ans. 0.5645

Qu. Which Inh (PKA) is listed for CC(=O)c1c(C)c2cnc(Nc3ccc(N4CCNCC4)cn3)nc2n(C2CCCC2)c1=O [UM0141999:01, Palbociclib (PD0332991) Isethionate] ?
Ans. 9.751

Qu. Which Inh (PKA) is listed for CCCC(CCC)C(=O)O [UM0128554:02, Valproic acid] ?
Ans. -0.4434

Qu. Which Inh (PKA) is listed for Cc1ccc(NC(=O)c2ccc(CN3CCN(C)CC3)cc2)cc1Nc1nccc(-c2cccnc2)n1 [UM0130978:02, Imatinib Mesylate (STI571)] ?
Ans. 10.22

Qu. Which Inh (PKA) is listed for CCOC(=O)[C@@H](N)CCC(=O)N[C@@H](CSCc1ccccc1)C(=O)N[C@@H](C(=O)OCC)c1ccccc1 [UM0141959:01, Ezatiostat] ?
Ans. 2.198

Qu. Which Inh (PKA) is listed for CCOC(=O)[C@H](C)C[C@@H](Cc1ccc(-c2ccccc2)cc1)NC(=O)CCC(=O)O [UM0142501:01, AHU-377 hemicalcium salt] ?
Ans. 0.8137

Qu. Which Inh (PKA) is listed for Oc1cccc(-c2nc(N3CCOCC3)c3oc4ncccc4c3n2)c1 [UM0141606:01, PI-103 Hydrochloride] ?
Ans. 17.85

Qu. Which Inh (PKA) is listed for CC(=O)c1c(C)c2cnc(Nc3ccc(N4CCNCC4)cn3)nc2n(C2CCCC2)c1=O [UM0141983:01, PD 0332991 (Palbociclib) HCl] ?
Ans. 11.32
